system.name: KRAS-G12D protein (Homo sapiens, UniProt P01116, G12D)
Construct: host or cells: Aspc-1 cells
Sequence (P01116 1-188 isoform P01116-2 G12D): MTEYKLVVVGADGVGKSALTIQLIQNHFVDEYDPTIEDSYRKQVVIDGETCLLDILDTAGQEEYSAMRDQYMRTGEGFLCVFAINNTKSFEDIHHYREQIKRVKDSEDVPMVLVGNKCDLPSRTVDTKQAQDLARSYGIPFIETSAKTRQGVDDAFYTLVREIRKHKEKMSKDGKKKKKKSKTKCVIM
measurement.notes: KRAS-G12D protein degradation study in Aspc-1 cells (western blot)
Assay type: cell-based
stated.conditions: ASPC1, 24 h, Aspc-1 cells treated with 1 μM compound, 24 hours; read-out: Rate of protein degradation (KRAS^G12D)
measured.metric: inhibition at 1 µM

Report inhibition at 1 µM, nothing else, for this compound: `C#Cc1c(F)ccc2cc(O)cc(-c3ncc4c(N5CC6CCC(C5)N6)nc(OC5CCN(CCOCCOCC(=O)N[C@H](C(=O)N6C[C@H](O)C[C@H]6C(=O)NCc6ccc(-c7scnc7C)cc6)C(C)(C)C)CC5)nc4c3F)c12`
11 to 30%

Report inhibition at 1 µM, nothing else, for this compound: `C#Cc1c(F)ccc2cc(O)cc(-c3ncc4c(N5CC6CCC(C5)N6)nc(OCCCN5CCN(CC(=O)N6CCN(C(=O)C[C@H](NC(=O)[C@@H]7C[C@@H](O)CN7C(=O)[C@@H](NC(=O)C7(F)CC7)C(C)(C)C)c7ccc(-c8scnc8C)cc7)CC6)CC5)nc4c3F)c12`
11 to 30%

Report inhibition at 1 µM, nothing else, for this compound: C#Cc1c(F)ccc2cc(O)cc(-c3ncc4c(N5CC6CCC(C5)N6)nc(OC5CCN(CCCCCCCCCCC(=O)N[C@H](C(=O)N6C[C@H](O)C[C@H]6C(=O)N[C@@H](C)c6ccc(-c7scnc7C)cc6)C(C)(C)C)C5)nc4c3F)c12 (stereo partly shown)
> 60%

Report inhibition at 1 µM, nothing else, for this compound: `C#Cc1c(F)ccc2cc(O)cc(-c3ncc4c(N5CC6CCC(C5)N6)nc(OCCCN5CCN(CCCCCC(=O)N[C@H](C(=O)N6C[C@H](O)C[C@H]6C(=O)NCc6ccc(-c7scnc7C)cc6)C(C)(C)C)CC5)nc4c3F)c12`
11 to 30%
